A collection of compounds and their measured inhibition at 10 µM
Tested on: IL-8 mRNA
method.summary: RT-qPCR quantification of IL-8 mRNA in TNF-α-induced IB3-1 cells
Assay type: cell-based, human
assay.conditions: Homo sapiens, IB3-1, 24 h, TNF-α-induced IB3-1 cells, 10 μM compound, RT-qPCR; na = not active at the used concentrations

- smi: "Cc1cc(=O)oc2c1cc(C)c1occ(CBr)c12"
  value.unit: "%"
  inhibition at 10 µM: 31
- smi: "Cc1c(C)c2cc(C)c3occc3c2oc1=O"
  value.unit: "%"
  inhibition at 10 µM: 36
- smi: "Cc1cc2c(CO)cc(=O)oc2c2c(C)coc12"
  value.unit: "%"
  inhibition at 10 µM: 52
- smi: "Cc1cc(=O)oc2c1ccc1oc(CN)cc12"
  value.unit: "%"
  inhibition at 10 µM: 83
- smi: "Cc1cc2c(C)cc3oc(=O)cc(C)c3c2o1"
  value.unit: "%"
  inhibition at 10 µM: 67
- smi: "Cc1cc2c(C)cc(=O)oc2c2c1OCC=C2"
  value.unit: "%"
  inhibition at 10 µM: 37
- smi: "O=c1cc(CO)c2ccc3sccc3c2o1"
  value.unit: "%"
  inhibition at 10 µM: 21
- smi: "Cc1coc2c1c(C)cc1oc(=O)cc(C)c12"
  value.unit: "%"
  inhibition at 10 µM: 52
- smi: "Cc1oc2c(C)cc3c(C)cc(=O)oc3c2c1C"
  value.unit: "%"
  inhibition at 10 µM: 56

* * *

A collection of compounds and their measured pIC50
Test system: IB3-1 cells
method.summary: Cell proliferation assay on IB3-1 cells
Type: cell-based
assay.conditions: Homo sapiens, cell number/ml after 48 h of treatment
pIC50: −log10 of the molar value.

- compound: "O=c1cc(CO)c2ccc3sccc3c2o1"
  pIC50: "< 3.10"
- compound: "Cc1cc(=O)[nH]c2c1cc(C)c1occ(C)c12"
  pIC50: 3.71
- compound: "Cc1cc(=O)oc2c1cc(C)c1scc(C)c12"
  pIC50: "< 3.10"
- compound: "Cc1cc(=O)oc2c1ccc1occ(C)c12"
  pIC50: 3.74
- compound: "Cc1cc(=O)oc2c1cc(C)c1[nH]nnc12"
  pIC50: "< 3.10"
- compound: "Cc1cc(=O)oc2c3c(ccc12)OC(CBr)C3 (centres unmarked)"
  pIC50: 3.74
- compound: "COCc1cc(=O)oc2c1cc(C)c1occ(C)c12"
  pIC50: "< 3.10"
- compound: "Cc1oc2c(cc(C)c3occ(C)c32)c(=O)c1C"
  pIC50: "< 3.10"
- compound: "Cc1cc2c(o1)c1cc(C)oc1c1c(C)cc(=O)oc21"
  pIC50: "< 3.10"
- compound: "Cc1oc2c(C)cc3c(C)cc(=O)oc3c2c1C"
  pIC50: "< 3.10"
- compound: "COC1Cc2c(ccc3c(C)cc(=O)oc23)O1 (centres unmarked)"
  pIC50: 3.17

* * *

tgt: NF-κB p50 (Homo sapiens)
Construct: This assay was performed using purified NF-κB p50; purchased Promega
Sequence (P19838 1-433 limits assumed): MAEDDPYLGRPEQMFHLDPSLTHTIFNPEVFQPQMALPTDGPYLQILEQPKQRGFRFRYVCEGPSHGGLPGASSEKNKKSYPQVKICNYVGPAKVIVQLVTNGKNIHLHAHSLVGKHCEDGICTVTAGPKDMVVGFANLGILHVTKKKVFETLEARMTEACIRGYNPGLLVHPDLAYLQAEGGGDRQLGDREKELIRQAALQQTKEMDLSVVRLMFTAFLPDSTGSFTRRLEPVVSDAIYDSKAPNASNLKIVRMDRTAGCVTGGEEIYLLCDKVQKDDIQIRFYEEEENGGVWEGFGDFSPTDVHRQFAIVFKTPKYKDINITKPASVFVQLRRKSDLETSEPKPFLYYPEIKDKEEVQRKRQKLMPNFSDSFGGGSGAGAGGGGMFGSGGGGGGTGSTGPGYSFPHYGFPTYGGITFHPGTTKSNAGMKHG
method.summary: EMSA, inhibition of NF-κB/DNA interactions
Type: binding
assay.conditions: NF-κB p50 and 32P-labeled NF-κB oligonucleotide, MIC = minimal inhibitory concentration, 12.5 μM was the lowest concentration used
Method: Electrophoretic mobility shift assays were performed using double-stranded ^32P-labeled oligonucleotides as target DNA. […] The effects of TMA derivatives on NF-κB- (nuclear factor-kappaB-) mediated induction of proinflammatory genes was verified first in vitro by electrophoretic mobility shift assay (EMSA) with the aim to verify and quantify the possible inhibition of NF-κB/DNA interactions. […]

- compound: "Cc1oc2c(C)cc3c(C)cc(=O)oc3c2c1C"
  Inhibition of NF-κB/DNA complex (MIC): "<12.5 (^∗) μM"
- compound: "Cc1oc2c(cc(C)c3occ(C)c32)c(=O)c1C"
  Inhibition of NF-κB/DNA complex (MIC): "<12.5 (^∗) μM"
- compound: "Cc1cc(=O)oc2c1cc(C)c1scc(C)c12"
  Inhibition of NF-κB/DNA complex (MIC): "> 100 µM"
- compound: "Cc1cc2c(o1)c1cc(C)oc1c1c(C)cc(=O)oc21"
  Inhibition of NF-κB/DNA complex (MIC): "12.5 to 25 µM"
- compound: "Cc1c(C)c2cc(C)c3occc3c2oc1=O"
  Inhibition of NF-κB/DNA complex (MIC): "12.5 to 25 µM"
- compound: "Cc1cc2c(CO)cc(=O)oc2c2cc(CO)oc12"
  Inhibition of NF-κB/DNA complex (MIC): "> 100 µM"
- compound: "Cc1cc(=O)oc2c1cc(Cl)c1occ(C)c12"
  Inhibition of NF-κB/DNA complex (MIC): "12.5 µM"
- compound: "COCc1cc(=O)oc2c1cc(C)c1occ(C)c12"
  Inhibition of NF-κB/DNA complex (MIC): "12.5 µM"
- compound: "Cc1cc2c(C(F)(F)F)cc(=O)oc2c2c(C)coc12"
  Inhibition of NF-κB/DNA complex (MIC): "> 100 µM"
- compound: "Cc1cc(=O)[nH]c2c1cc(C)c1occ(C)c12"
  Inhibition of NF-κB/DNA complex (MIC): "> 100 µM"
- compound: "Cc1cc2c(o1)c(C)cc1c(CO)cc(=O)oc12"
  Inhibition of NF-κB/DNA complex (MIC): "25 to 50 µM"
- compound: "Cc1cc2oc(=O)cc(C)c2c2c1C=CCO2"
  Inhibition of NF-κB/DNA complex (MIC): "12.5 to 25 µM"
- compound: "Cc1cc(=O)oc2c3c(ccc12)OC(CBr)C3 (stereo not shown)"
  Inhibition of NF-κB/DNA complex (MIC): "> 100 µM"
- compound: "CC(=O)OCc1oc2c(C)cc3c(C)cc(=O)oc3c2c1C"
  Inhibition of NF-κB/DNA complex (MIC): "> 100 µM"
- compound: "Cc1cc2c(C)cc(=O)oc2c2c1OCC=C2"
  Inhibition of NF-κB/DNA complex (MIC): "25 to 50 µM"
